- Tested on: NEC8 (Other Solid Carcinomas)
- Test Method Notes: combination Emax (second highest fraction inhibited in the dose matrix, 72 h); higher = more inhibition; extreme values may be limits of the assay
Outcome Measure: combination Emax
No unit in the answer, only the number.

Field: example entries. Status: answers known.
CN(CCO)CC[C@H](CSc1ccccc1)Nc1ccc(S(=O)(=O)NC(=O)c2ccc(N3CCC([C@@H](O)c4ccccc4-c4ccc(Cl)cc4)CC3)cc2)cc1S(=O)(=O)C(F)(F)F [AZD4320] + CCN(CCO)CCCOc1ccc2c(Nc3cc(CC(=O)Nc4cccc(F)c4)[nH]n3)ncnc2c1 [AZD2811] (first compound max 1 µM, 7x7, partner max 1 µM) : 0.159
COc1nnc2ccc(N3CCC(c4ccc(OCCN5CCN(C)C(=O)[C@H]5C)cc4)CC3)nn12 [AZD5153] + CCN(CCO)CCCOc1ccc2c(Nc3cc(CC(=O)Nc4cccc(F)c4)[nH]n3)ncnc2c1 [AZD2811] (first compound max 1 µM, 7x7, partner max 1 µM) : 0.826
Cn1cnc2c(F)c(Nc3ccc(Br)cc3Cl)c(C(=O)NOCCO)cc21 [Selumetinib] + CC(C)n1c(=O)n(C)c2cnc3cc(F)c(-c4ccc(OCCCN5CCCCC5)nc4)cc3c21 [AZD1390] (first compound max 10 µM, 7x7, partner max 0.3 µM) : 0.0259
Cc1c2c(nn1C)CSCc1cc(n(C)n1)CSc1cc(c3ccccc3c1)OCCCc1c(C(=O)O)n(C)c3c-2c(Cl)ccc13 [AZD5991] + CCN(CCO)CCCOc1ccc2c(Nc3cc(CC(=O)Nc4cccc(F)c4)[nH]n3)ncnc2c1 [AZD2811] (first compound max 1 µM, 7x7, partner max 1 µM) : 0.33
C=CCn1c(=O)c2cnc(Nc3ccc(N4CCN(C)CC4)cc3)nc2n1-c1cccc(C(C)(C)O)n1 [AZD1775] + C1CN(CCC1(C(=O)N[C@@H](CCO)C2=CC=C(C=C2)Cl)N)C3=NC=NC4=C3C=CN4 [Capivasertib] (first compound max 3 µM, partner max 3 µM) : 0.985
CN(CCO)CC[C@H](CSc1ccccc1)Nc1ccc(S(=O)(=O)NC(=O)c2ccc(N3CCC([C@@H](O)c4ccccc4-c4ccc(Cl)cc4)CC3)cc2)cc1S(=O)(=O)C(F)(F)F [AZD4320] + C1CN(CCC1(C(=O)N[C@@H](CCO)C2=CC=C(C=C2)Cl)N)C3=NC=NC4=C3C=CN4 [Capivasertib] (first compound max 1 µM, 7x7, partner max 3 µM) : 0.0891
Cc1c2c(nn1C)CSCc1cc(n(C)n1)CSc1cc(c3ccccc3c1)OCCCc1c(C(=O)O)n(C)c3c-2c(Cl)ccc13 [AZD5991] + CN(C)CCCOc1ccc(-c2ccc3ncc4c(c3c2)n(C2CCOCC2)c(=O)n4C)cn1 [AZD0156] (first compound max 1 µM, 7x7, partner max 1 µM) : 0.291

Continue with the next compound.
So what's the measured combination Emax for this one? CN(CCO)CC[C@H](CSc1ccccc1)Nc1ccc(S(=O)(=O)NC(=O)c2ccc(N3CCC([C@@H](O)c4ccccc4-c4ccc(Cl)cc4)CC3)cc2)cc1S(=O)(=O)C(F)(F)F [AZD4320] + C[C@@H](Nc1cc(F)cc(F)c1)c1cc(C(=O)N(C)C)cc2c(=O)cc(N3CCOCC3)oc12 [AZD8186] (first compound max 1 µM, 7x7, partner max 3 µM)
0.341
